These measurements were taken from paper PMC11513892.

assay: Kinetic solubility in phosphate buffered saline at pH 7.4; format: physicochemical; conditions: phosphate buffered saline, pH 7.4, phosphate buffered saline pH 7.4, assay range 2.5–200 μM; read-out: solubility (kinetic)
quantityMeasured: solubility kinetic

• C[C@@H]1NC(=O)[C@@H](NC(=O)OC(C)(C)C)Cc2ccc(cc2)Oc2ccc(cc2NC(=O)c2ccccn2)C(=O)CNC1=O = > 100 µM
• CC(C)(C)OC(=O)N[C@H]1Cc2ccc(cc2)Oc2ccc(cc2NC(=O)c2ccccn2)C(=O)CNC(=O)[C@H](Cc2ccccc2)NC1=O = < 2.5 µM
• CC(=O)N[C@H]1Cc2ccc(cc2)Oc2ccc(cc2NC(=O)c2ccccn2)C(=O)CNC(=O)[C@H](Cc2ccccc2)NC1=O = 96 µM
• CC(=O)Nc1cc2ccc1Oc1ccc(cc1)C[C@H](NC(=O)OC(C)(C)C)C(=O)N[C@@H](Cc1ccccc1)C(=O)NCC2=O = > 100 µM
• CC(C)(C)OC(=O)N[C@H]1CCc2ccc(cc2)Oc2ccc(cc2NC(=O)c2ccccn2)C(=O)CNC(=O)[C@H](Cc2ccccc2)NC1=O = 2.7 µM

Record solubility kinetic for all entries; do not skip any.
1. CC(C)C[C@@H]1NC(=O)[C@@H](NC(=O)OC(C)(C)C)Cc2ccc(cc2)Oc2ccc(cc2NC(=O)c2ccccn2)C(=O)CNC1=O
2. CC(C)(C)OC(=O)N[C@H]1Cc2ccc(cc2)Oc2ccc(cc2NC(=O)c2ccccn2)C(=O)CNC(=O)[C@@H](Cc2ccccc2)NC1=O

Output line:
1. 7.6 µM
2. 2.9 µM
